What GI50 was measured for each of the following?
test system: TK-10; assay: NCI tumour cell line growth inhibition, 48 h
The source made the active and inactive calls. Cut-off read from the data, not from the text of the source: active = GI50 up to about 1.1 µM and inactive = higher.

Use the examples below as a reference point.
Problem: // Input: `CCCCc1c(N(C)C)c(OC(C)=O)c(-c2cn(C)c3ccccc23)oc1=O` . Output its GI50 only.
Solution: 40 µM (inactive)

Problem: Identify measured GI50 corresponding to `O=C(/C=C/c1ccc(F)c(F)c1)OCCc1ccccc1`
Solution: > 100 µM (inactive)

Problem: Given `COc1c(OC)c(OC)c2c(=O)cc(-c3ccc(OC(C)C)cc3)oc2c1OC` , respond with its GI50.
Solution: > 38.6 µM (inactive)

Lab note: each molecule below needs its GI50 filled in.
1. CC1OC(O[C@H]2CC[C@]3(C)[C@H]4CC=C5[C@@H]6[C@@H](C)[C@H](C)CC[C@]6(C(=O)O)CC[C@@]5(C(=O)O)[C@]4(C)CC[C@H]3C2(C)C)C(O)C(O)C1O (stereo partly drawn)
2. Nc1ccccc1N/C=C\C(=O)C(Cl)(Cl)Cl

Solution:
1: > 75 µM (inactive); 2: 30.6 µM (inactive)

// for each molecule in input: emit GI50
1. O=C(CC(=O)N1N=C(n2ccc3ccccc32)CC1c1ccccc1)Nc1ccccc1Cl (stereo not drawn)
2. Cc1cccc2sc(NC(=O)c3cc([N+](=O)[O-])ccc3Cl)nc12
3. Cc1cccc(-c2cc(O)c3c(C)ccnc3n2)c1
4. C[C@]12CCC3[C@@H](CCC45OC4C(=O)CC[C@]35C)C1Cc1cnn(-c3ccc(F)cc3)c1N2 (stereo partly drawn)
5. N#Cc1c(-c2ccc(Cl)cc2)c2c(n(C3OC(CO)C(O)C(O)C3O)c1=S)CCC2 (stereo not drawn)
6. COC1(O)C(=O)c2ccccc2OC1(OC)c1ccccc1 (stereo not drawn)

Solution:
> 100 µM (inactive)
2.59 µM (inactive)
> 53.1 µM (inactive)
> 100 µM (inactive)
37.6 µM (inactive)
> 100 µM (inactive)
